Each entry below carries its recorded normalized growth.
Assay: chemical genetic growth profiling, strain panel (AID 1159580);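 note: tested at 20 µM; growth read once vehicle control cultures reached saturation at 30 °C; 1 = growth at the plate median or of vehicle wells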
Conditions: S. cerevisiae deletion strains, growth OD, locus YEL061C, strain CIN8, stronger effect = lower value
The campaign covered roughly 5,500 compounds. About 2,000 (36%) were called active. Another 18% or so got no clear call; they are omitted. The list shows a part of the results. Where a SMILES comes first, the peptide text is derived from it. Bridges are numbered along the chain shown (N, C = ends). Side-chain parts run from the residue outwards. [ ]: non-standard residue; d: D form. The star is where a group is joined. Octanoyl(6-Me) = CCC(C)CCCCC(=O)*; X1 = CCC(C)C(N)C1=NC(C(=O)*)CS1; Orn = NCCC[CH](N)C(=O)O; Dab = NCC[CH](N)C(=O)O
The reply should be a number, written without any unit.

Known normalized growth results, listed for orientation:
>>> measurement("Cc1ccc(N=Nc2c(C)[nH]n(C)c2=O)cc1")
0.839
>>> measurement("CN1CCN(CCC=C2c3ccccc3Sc3ccc(S(=O)(=O)N(C)C)cc32)CC1")
1.02
>>> measurement("COc1cc(-c2coc3cc(O[C@@H]4O[C@H](CO)[C@@H](O)[C@H](O)[C@H]4O)c(OC)c(O)c3c2=O)cc(O)c1OC")
1
>>> measurement("CC(=O)O[C@@H]1CC[C@]2(C)C3CC[C@]4(C)C(=O)CCC4C3CC[C@H]2C1 (stereo partly specified)")
0.983
>>> measurement("NCC1OC(OC2C(CO)OC(OC3C(O)C(N)CC(N)C3OC3OC(CO)C(O)CC3N)C2O)C(N)C(O)C1OC1OC(CO)C(O)C(O)C1O (stereo unspecified)")
0.995

Value of normalized growth reported for the compound COc1ccc(C2C(=O)c3ccccc3C2=O)cc1 is 0.98

Summary for this compound, CCC(C)CCCCC(=O)NC(CCN)C(=O)NC(C(=O)NC(CCN)C(=O)NC1CCNC(=O)C(C(C)O)NC(=O)C(CCN)NC(=O)C(CCN)NC(=O)C(CC(C)C)NC(=O)C(Cc2ccccc2)NC(=O)C(CCN)NC1=O)C(C)O (stereo unspecified) ({Octanoyl(6-Me)}-[Dab]T[Dab][Dab][Dab]FL[Dab][Dab]T; lactam 4-C; configuration not given here) : normalized growth is 0.998

Measured normalized growth, COc1cc2c(cc1O)CCNC2C (stereo unspecified) : 0.996

The reported normalized growth of the compound CC(=O)N[C@@H](Cc1c[nH]c2ccccc12)C(=O)O was 1

Consider CCC(C)C(N)C1=NC(C(=O)NC(CC(C)C)C(=O)NC(CCC(=O)O)C(=O)NC(C(=O)NCCCCC2NC(=O)C(CC(N)=O)NC(=O)C(CC(=O)O)NC(=O)C(Cc3cnc[nH]3)NC(=O)C(Cc3ccccc3)NC(=O)C(C(C)CC)NC(=O)C(CCCN)NC2=O)C(C)CC)CS1 (stereo not drawn) (cyclo(DNK([Ile-Glu-Leu-X1])[Orn]IFH); configuration not given here) . Its measured normalized growth is 0.998

The compound listed as Cc1nn(-c2ccccc2)nc1C(=O)NNC(=S)Nc1ccc(Cl)cc1 has a reported normalized growth of 0.866

// normalized growth lookup, compound = O=C(O)c1cc([N+](=O)[O-])ccc1NCCCc1ccccc1 , result: 0.97

Record summary for O=C(O)c1nccnc1C(=O)O : reported normalized growth = 0.994

Data point: COc1cc(OC)cc(N2C(=O)C=CC2=O)c1 ; normalized growth = 0.0533

The recorded normalized growth for CC[C@H]1OC(=O)[C@H](C)[C@@H](O[C@H]2C[C@@](C)(OC)[C@@H](O)[C@H](C)O2)[C@H](C)[C@@H](O[C@@H]2O[C@H](C)C[C@H](N(C)C)[C@H]2O)[C@](C)(O)C[C@@H](C)[C@@H]2N[C@@H](COCCOC)O[C@H]([C@H]2C)[C@]1(C)O is 1.01

Summary for this compound, O=c1[nH]cnc2c1ncn2C1O[C@H](CO)[C@@H](O)[C@H]1O (stereo partly specified) : normalized growth is 1

###

Assay: chemical genetic growth profiling, strain panel (AID 1159580)
Conditions: S. cerevisiae deletion strains, growth OD, locus YIR030C, strain dcg1
Screen size: about 5,500 compounds; about 2,000 (36%) were called active. Roughly 18% stayed inconclusive and do not appear here. No stated cut-off is given here; in the data, active means normalized growth mostly below about 0.91 (no sharp cut-off); inconclusive means no clear call, values can overlap the other calls; inactive means mostly above about 0.92. The list shows a part of the results.
API: response.call in active, inactive

Some solved cases for reference:
>>> class("CC(=O)CC1CCCCN1 (stereo not given)")
"inactive"
>>> class("C1CCC(C(CC2CCCCN2)C2CCCCC2)CC1 (stereo not given)")
"active"
>>> class("CC[C@H]1CN2CCc3cc(OC)c(OC)cc3C2C[C@@H]1CC1NCCc2cc(OC)c(OC)cc21 (stereo not given in full)")
"inactive"

Please state the recorded outcome for this compound: COc1ccc2c(c1)[C@]13CCCC[C@H]1[C@H](C2)N(C)CC3 inactive

What did this assay record as the result for C=C(C)[C@@H]1CC[C@]2(CO)CC[C@]3(C)[C@H](CCC4[C@@]5(C)CC[C@H](O)C(C)(C)C5CC[C@]43C)C12 (stereo not given in full) ? inactive

###

A collection of compounds and their measured normalized growth
Experiment: chemical genetic growth profiling, strain panel (AID 1159580)
Conditions: S. cerevisiae deletion strains, growth OD, locus YLL041C, strain sdh2, stronger effect = lower value
Screen size: about 5,500 compounds; about 2,000 (36%) were called active. Inconclusive results (about 18%) are left out. The list shows a part of the results.
// return just the number, without any unit appended

In the examples that follow, each entry is paired with its recorded normalized growth.
>>> measurement("CC1(C)S[C@@H]2[C@H](NC(=O)Cc3ccccc3)C(=O)N2[C@H]1C(=O)O")
1.01
>>> measurement("Cc1onc(-c2ccccc2)c1C(=O)NC1C(=O)N2[C@@H]1SC(C)(C)[C@@H]2C(=O)O (stereo not given in full)")
1.01
>>> measurement("COc1cccc(OC)c1C(=O)N[C@@H]1C(=O)N2[C@@H]1SC(C)(C)[C@@H]2C(=O)O")
0.994
>>> measurement("Cc1onc(-c2ccccc2Cl)c1C(=O)N[C@@H]1C(=O)N2[C@@H]1SC(C)(C)[C@@H]2C(=O)O")
1.02

# compound COc1cc(/C=C/C(=O)N2CCC=CC2=O)cc(OC)c1OC ; its normalized growth = 0.992

###

Experiment: chemical genetic growth profiling, strain panel (AID 1159580);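 note: tested at 20 µM; growth read once vehicle control cultures reached saturation at 30 °C; 1 = growth at the plate median or of vehicle wells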
Conditions: S. cerevisiae deletion strains, growth OD, locus YMR223W, strain ubp8, stronger effect = lower value
Among all 5,500 compounds or so, about 2,000 (36%) were called active. Another 18% or so got no clear call; they are omitted. The list shows a part of the results.
Quick reference for normalized growth among some compounds
Answer using only a numeral; do not append any unit.

>>> measurement("Cc1onc(-c2ccccc2Cl)c1C(=O)N[C@@H]1C(=O)N2[C@@H]1SC(C)(C)[C@@H]2C(=O)O")
1.02

Short answer for O=C1c2ccccc2C(=O)C1c1ccccc1 : normalized growth was 1

// NC(N)=NC(N)=Nc1ccccc1 : normalized growth value = 0.99

Please fill in: normalized growth reported for Cc1onc(-c2c(Cl)cccc2Cl)c1C(=O)N[C@@H]1C(=O)N2[C@@H]1SC(C)(C)[C@@H]2C(=O)O = 0.973

###

Assay: chemical genetic growth profiling, strain panel (AID 1159580);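 note: tested at 20 µM; growth read once vehicle control cultures reached saturation at 30 °C; 1 = growth at the plate median or of vehicle wells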
Details: S. cerevisiae deletion strains, growth OD, locus YER155C, strain BEM2, stronger effect = lower value
Among all 5,500 compounds or so, about 2,000 (36%) were called active. Inconclusive results (about 18%) are left out. Some of the results follow.
Reported normalized growth values for a set of compounds
Kindly provide the number alone.

These solved cases illustrate the format of a correct answer.
>>> measurement("CC(=O)OCC(=O)[C@@]1(O)CCC2C3CC[C@@H]4C[C@H](OC(C)=O)CC[C@]4(C)C3C(=O)C[C@@]21C (some centres undefined)")
0.994
>>> measurement("COc1cc(-c2coc3cc(O[C@@H]4O[C@H](CO)[C@@H](O)[C@H](O)[C@H]4O)c(OC)c(O)c3c2=O)cc(O)c1OC")
0.991
>>> measurement("COc1ccc([C@H]2COc3c(ccc(O)c3OC)C2)c(OC)c1O")
1.01

Okay, next one:
The compound listed as CC(=O)O[C@H]1CC[C@]2(C)C3CC(=O)[C@]4(C)C(C(C)=O)=CCC4C3CC[C@H]2C1 (some centres undefined) shows normalized growth equal to 0.983

###

Experiment: chemical genetic growth profiling, strain panel (AID 1159580);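 note: tested at 20 µM; growth read once vehicle control cultures reached saturation at 30 °C; 1 = growth at the plate median or of vehicle wells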
Details: S. cerevisiae deletion strains, growth OD, locus YOL006C, strain TOP1, stronger effect = lower value
In all, about 5,500 compounds went through this assay and about 2,000 (36%) were called active. Roughly 18% stayed inconclusive and do not appear here. The list shows a part of the results.
Threshold check on normalized growth: strictly below 1 is satisfied; on or above 1 is not satisfied.

Would you please look over these solved cases?
>>> class("COc1cc(NS(=O)(=O)c2ccc(N)cc2)ncn1")
"satisfied"
>>> class("COc1cc(/C=N\\NC(=S)NC2CC3CCC2C3)cc(OC)c1OC (stereo not drawn)")
"satisfied"
>>> class("CC(=O)O[C@H]1CC[C@]2(C)C3CC[C@@]4(C)C(CC5O[C@@]6(CCC(C)CO6)[C@@H](C)C54)C3CC[C@H]2C1 (stereo partly drawn)")
"not satisfied"
>>> class("CC[C@H]1CN2CCc3cc(OC)c(OC)cc3C2C[C@@H]1CC1NCCc2cc(OC)c(OC)cc21 (stereo partly drawn)")
"not satisfied"

Please determine if CC1(C)C(=O)[C@@H]2C[C@@]3(O)C4=CC(=O)O[C@@H](c5ccoc5)[C@]4(C)CCC3[C@@](C)(C2=O)[C@H]1CC(=O)O (stereo partly drawn) is below 1 in terms of normalized growth. not satisfied

Is it true that normalized growth reported for CC(=O)OC1CCC2(C)C3CC(=O)C4(C)C(CC5OC6(CCC(C)CO6)[C@@H](C)C54)C3CC[C@H]2C1 (stereo partly drawn) is less than 1? not satisfied
